# Measurement Target: Histone deacetylase 2 (Homo sapiens)
# Assay: Inhibition of full-length recombinant human C-terminal GST tagged HDAC2 expressed in Sf9 insect cells using aminoluciferin peptide substrate at 100 nM preincubated for 3 hrs followed by substrate addition and measured after 30 mins by HDAC-Glo I/II chemiluminescence assay
# Study Conditions: time 3.5 hrs
Metric: inhibition (%)
Lab book: enter the figure in %, no units written.

// known answers, use as guide
item_smiles=Nc1ccc(-c2ccc(F)cc2)cc1NC(=O)CCc1cn(-c2ccc(O)cc2)nn1 metric=inhibition experimental_result=3
item_smiles=Nc1ccc(-c2ccsc2)cc1NC(=O)c1cn(CCCCCCC(=O)O)nn1 metric=inhibition experimental_result=8

## Task Report measured inhibition on Histone deacetylase 2 (Homo sapiens); entry: `Cc1cccc(C)c1NC(=O)Cn1cc(-c2cccc(C(=O)Nc3cc(-c4cccs4)ccc3N)c2)nn1`
## Result 8

## Task Report measured inhibition on Histone deacetylase 2 (Homo sapiens); entry: `Nc1ccc(-c2cccnc2)cc1NC(=O)CCc1cn(Cc2cccc3ccccc23)nn1`
## Result 12

## Task Report measured inhibition on Histone deacetylase 2 (Homo sapiens); entry: `Nc1ccc(-c2cccs2)cc1NC(=O)CCc1cn(CCc2cccc(Cl)c2)nn1`
## Result 9

###

# Measurement Target: Histone deacetylase 2 (Homo sapiens, UniProt Q92769)
# Sequence (Q92769 whole entry): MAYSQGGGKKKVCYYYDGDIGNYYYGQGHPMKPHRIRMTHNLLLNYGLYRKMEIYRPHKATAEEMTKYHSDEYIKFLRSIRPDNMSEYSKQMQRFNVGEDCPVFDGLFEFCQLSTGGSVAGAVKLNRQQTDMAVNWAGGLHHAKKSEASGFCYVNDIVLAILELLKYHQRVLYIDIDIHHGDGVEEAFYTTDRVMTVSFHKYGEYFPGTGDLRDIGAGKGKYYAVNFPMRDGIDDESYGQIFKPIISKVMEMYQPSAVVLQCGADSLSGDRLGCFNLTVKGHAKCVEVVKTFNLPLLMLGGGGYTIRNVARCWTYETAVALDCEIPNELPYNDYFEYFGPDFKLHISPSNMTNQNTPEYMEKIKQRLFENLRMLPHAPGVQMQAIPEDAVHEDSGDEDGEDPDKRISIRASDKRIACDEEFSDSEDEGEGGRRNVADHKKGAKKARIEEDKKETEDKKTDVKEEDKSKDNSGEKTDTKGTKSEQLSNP
# Assay: Inhibition of full-length recombinant human C-terminal GST tagged HDAC2 expressed in Sf9 insect cells using aminoluciferin peptide substrate at 100 nM preincubated for 3 hrs followed by substrate addition and measured after 30 mins by HDAC-Glo I/II chemiluminescence assay
# Study Conditions: time 3.5 hrs
Tick true (1) if inhibition is 5% or greater. Tick false (0) if inhibition is less than 5%.

item_smiles=CCc1ccc(Cn2cc(CCC(=O)Nc3cc(-c4cccs4)ccc3N)nn2)cc1 category_label="true (1)"
item_smiles=Nc1ccc(-c2ccccc2)cc1NC(=O)CCc1cn(Cc2cccc(-c3ccccc3)c2)nn1 category_label="false (0)"
item_smiles=Nc1ccc(-c2ccc(F)cc2)cc1NC(=O)c1cn(CC23CC4CC(CC(C4)C2)C3)nn1 category_label="false (0)"
item_smiles=Nc1ccc(-c2cccs2)cc1NC(=O)c1cccc(-c2cn(CCCCCC(=O)O)nn2)c1 category_label="true (1)"
item_smiles=CCc1ccc(Cn2cc(-c3cccc(C(=O)Nc4cc(-c5cccs5)ccc4N)c3)nn2)cc1 category_label="false (0)"

## Task In plain terms: is recorded inhibition at least 5% for `Nc1ccc(-c2cccs2)cc1NC(=O)CCc1cn(CCN2CCc3ccccc3C2)nn1` ?
## Result true (1)

## Task In plain terms: is recorded inhibition at least 5% for `Nc1ccc(-c2ccc(F)cc2)cc1NC(=O)CCc1cn(Cc2ccc(OC(F)(F)F)cc2)nn1` ?
## Result false (0)

## Task In plain terms: is recorded inhibition at least 5% for `Cc1cccc(CCn2cc(C(=O)Nc3cc(-c4ccsc4)ccc3N)nn2)c1` ?
## Result true (1)

###

# Measurement Target: Histone deacetylase 2 (Homo sapiens)
# Assay: Inhibition of full-length recombinant human C-terminal GST tagged HDAC2 expressed in Sf9 insect cells using aminoluciferin peptide substrate at 100 nM preincubated for 3 hrs followed by substrate addition and measured after 30 mins by HDAC-Glo I/II chemiluminescence assay
# Study Conditions: time 3.5 hrs
// classify(record): look up inhibition in ranges low bracket (below 4%), middle bracket (4% to below 20%), high bracket (20% or more)

Below, 5 compounds whose answers are already recorded.
item_smiles=Cc1ccccc1CCn1cc(-c2ccc(C(=O)Nc3cc(-c4cccs4)ccc3N)s2)nn1 category_label="middle bracket"
item_smiles=Nc1ccc(-c2ccsc2)cc1NC(=O)CCc1cn(Cc2cccc(-c3ccccc3)c2)nn1 category_label="low bracket"
item_smiles=Nc1ccc(-c2cccs2)cc1NC(=O)c1ccc(-c2cn(CCc3ccccc3)nn2)cc1 category_label="high bracket"
item_smiles=Nc1ccc(-c2cccs2)cc1NC(=O)CCc1cn(Cc2cccc3ccccc23)nn1 category_label="middle bracket"
item_smiles=Nc1ccc(-c2ccsc2)cc1NC(=O)CCc1cn(CCc2cccc(F)c2)nn1 category_label="high bracket"

## Task Just checking, what class would you give `Nc1ccc(-c2ccsc2)cc1NC(=O)CCc1cn(CCc2cccc3ccccc23)nn1` here?
## Result low bracket

## Task Just checking, what class would you give `Nc1ccc(-c2cccnc2)cc1NC(=O)CCc1cn(CCc2c[nH]c3ccccc23)nn1` here?
## Result middle bracket

## Task Just checking, what class would you give `Nc1ccc(-c2ccccc2)cc1NC(=O)c1cn(-c2cccc3ccccc23)nn1` here?
## Result low bracket

###

# Measurement Target: Histone deacetylase 2 (Homo sapiens, UniProt Q92769)
# Assay: Inhibition of full-length recombinant human C-terminal GST tagged HDAC2 expressed in Sf9 insect cells using aminoluciferin peptide substrate at 100 nM preincubated for 3 hrs followed by substrate addition and measured after 30 mins by HDAC-Glo I/II chemiluminescence assay
# Study Conditions: time 3.5 hrs
Parameter inhibition: see the listing below.

// known answers, use as guide
item_smiles=Nc1ccc(-c2cccs2)cc1NC(=O)c1ccc(-c2cn(CCc3ccccc3[N+](=O)[O-])nn2)s1 experimental_result=16%
item_smiles=COc1ccc(-n2cc(CCC(=O)Nc3cc(-c4ccccc4)ccc3N)nn2)cc1 experimental_result=11%
item_smiles=Cc1cccc(C)c1NC(=O)Cn1cc(C(=O)Nc2cc(-c3ccsc3)ccc2N)nn1 experimental_result=24%
item_smiles=Cc1ccc(-n2cc(CCC(=O)Nc3cc(-c4ccccc4)ccc3N)nn2)cc1C experimental_result=0%
item_smiles=Nc1ccc(-c2cccs2)cc1NC(=O)c1ccc(-c2cn(CCCCCc3ccccc3)nn2)cc1 experimental_result=0%

## Task Report measured inhibition on Histone deacetylase 2 (Homo sapiens, UniProt Q92769); entry: `Nc1ccc(-c2ccccc2)cc1NC(=O)c1cn(CCCCCC(=O)O)nn1`
## Result 0%

## Task Report measured inhibition on Histone deacetylase 2 (Homo sapiens, UniProt Q92769); entry: `Nc1ccc(-c2ccccc2)cc1NC(=O)CCc1cn(-c2ccc(I)cc2)nn1`
## Result 0%

## Task Report measured inhibition on Histone deacetylase 2 (Homo sapiens, UniProt Q92769); entry: `Nc1ccc(-c2cccs2)cc1NC(=O)c1ccc(-c2cn(CCc3cccc(F)c3)nn2)s1`
## Result 24%

## Task Report measured inhibition on Histone deacetylase 2 (Homo sapiens, UniProt Q92769); entry: `Nc1ccc(-c2ccc(F)cc2)cc1NC(=O)c1cn(CCc2ccc(F)cc2)nn1`
## Result 0%

###

Parameter ka: see the listing below.
# Measurement Target: Histone deacetylase 2 (Homo sapiens, UniProt Q92769)
# Study Conditions: Sf9, time 60.0 min
Could you give the number and then its unit, please?

// known answers, use as guide
compound=CC(=O)Nc1ccc(C(=O)Nc2cc(-c3cccs3)ccc2N)cc1 metric=ka experimental_result="13300 M⁻¹ s⁻¹"
compound="Nc1ccc(-c2cccs2)cc1NC(=O)c1ccc(-c2cn(C[S+]([O-])c3ccccc3)nn2)cc1 (centres undefined)" metric=ka experimental_result="5330 M⁻¹ s⁻¹"
compound=Nc1ccc(-c2cccs2)cc1NC(=O)c1ccc(-c2cn(CCc3ccccn3)nn2)cc1 metric=ka experimental_result="8830 M⁻¹ s⁻¹"

Proceeding to the next compound to report its ka.
## Task Report ka for `Nc1ccccc1NC(=O)c1ccc(CNC(=O)OCc2cccnc2)cc1`
## Result 7670 M⁻¹ s⁻¹

###

Parameter inhibition: see the listing below.
# Measurement Target: Histone deacetylase 2 (Homo sapiens, UniProt Q92769)
# Assay: Inhibition of full-length recombinant human C-terminal GST tagged HDAC2 expressed in Sf9 insect cells using aminoluciferin peptide substrate at 100 nM preincubated for 3 hrs followed by substrate addition and measured after 30 mins by HDAC-Glo I/II chemiluminescence assay
# Study Conditions: time 3.5 hrs
Lab book: enter the figure in %, no units written.

item_smiles=Nc1ccc(-c2ccc(F)cc2)cc1NC(=O)c1cn(Cc2nc3ccccc3[nH]2)nn1 measurement_target="Histone deacetylase 2 (Homo sapiens, UniProt Q92769)" experimental_result=37
item_smiles=COc1ccc(CCn2cc(CCC(=O)Nc3cc(-c4cccs4)ccc3N)nn2)cc1 measurement_target="Histone deacetylase 2 (Homo sapiens, UniProt Q92769)" experimental_result=21
item_smiles=Nc1ccc(-c2cccnc2)cc1NC(=O)CCc1cn(CCN2CCc3ccccc3C2)nn1 measurement_target="Histone deacetylase 2 (Homo sapiens, UniProt Q92769)" experimental_result=5

## Task Report inhibition for `Nc1ccc(-c2cccs2)cc1NC(=O)c1ccc(-c2cn(CCc3ccc([N+](=O)[O-])cc3)nn2)s1`
## Result 23

## Task Report inhibition for `Nc1ccc(-c2ccc(F)cc2)cc1NC(=O)c1cn(CS(=O)(=O)c2ccccc2)nn1`
## Result 7

###

# Measurement Target: Histone deacetylase 1 (Homo sapiens)
# Sequence (Q13547 whole entry): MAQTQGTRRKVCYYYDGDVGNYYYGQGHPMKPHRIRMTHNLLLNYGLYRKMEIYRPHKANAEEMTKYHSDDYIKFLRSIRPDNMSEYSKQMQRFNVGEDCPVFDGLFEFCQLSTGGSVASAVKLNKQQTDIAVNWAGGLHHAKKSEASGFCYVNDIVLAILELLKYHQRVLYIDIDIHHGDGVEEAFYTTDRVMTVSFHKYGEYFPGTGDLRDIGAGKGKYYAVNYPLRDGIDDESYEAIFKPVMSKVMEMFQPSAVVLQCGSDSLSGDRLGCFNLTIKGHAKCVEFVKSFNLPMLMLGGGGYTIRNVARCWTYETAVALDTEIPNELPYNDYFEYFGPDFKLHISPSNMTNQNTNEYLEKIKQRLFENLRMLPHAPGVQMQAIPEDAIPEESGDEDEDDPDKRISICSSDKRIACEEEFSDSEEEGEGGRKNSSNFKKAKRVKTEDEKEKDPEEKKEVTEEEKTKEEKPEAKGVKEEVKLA
# Assay: Inhibition of full-length recombinant human C-terminal GST tagged HDAC1 expressed in Sf9 insect cells using aminoluciferin peptide substrate preincubated for 3 hrs followed by substrate addition and measured after 30 mins by HDAC-Glo I/II chemiluminescence assay
Metric: IC50 (nM)
Lab book: enter the figure in nM, no units written.

compound=Nc1ccc(-c2cccs2)cc1NC(=O)c1ccc(-c2cn(CS(=O)(=O)c3ccccc3)nn2)cc1 experimental_result=12
compound="Nc1ccc(-c2cccs2)cc1NC(=O)c1ccc(-c2cn(C[S+]([O-])c3ccccc3)nn2)cc1 (stereo not drawn)" experimental_result=8.2

Proceeding to the next compound to report its IC50.
## Task Report IC50 for `Nc1ccc(-c2cccs2)cc1NC(=O)c1ccc(-c2cn(CCc3ccccn3)nn2)cc1`
## Result 6.5
